Tested on: Leishmania donovani
Experiment: Leishmania intramacrophage assay
Assay type: functional, organism-based
Set-up: scale not given: in the data most compounds retested in dose-response had high values
Settings: 30.3 µM; […]
Screen size: about 69,000 compounds; about 1,000 (1.4%) showed an effect of 50% or more. For the sample, strong results were picked, then their nearest neighbours and some compounds at random.
Percent Effect by entry:
Number only, in %; omit the unit.

Known Percent Effect results, listed for orientation:
[
  {
    "compound": "O=C(O)C(F)(F)F.O=C(O)C(F)(F)F.OCCN1CC2(CCN(CC3CC3)CC2)c2ccccc21",
    "target.or.system": "Leishmania donovani",
    "output.unit": "%",
    "reported": 75.39
  },
  {
    "compound": "CC(C)CN1C(=O)C2(CCN(Cc3ccoc3)C2)c2ccccc21.O=C(O)C(F)(F)F (stereo not given)",
    "target.or.system": "Leishmania donovani",
    "output.unit": "%",
    "reported": -1.91
  },
  {
    "compound": "COc1ccccc1OC1CN(C(=O)Cc2c(C)nc3ccccn23)C1",
    "target.or.system": "Leishmania donovani",
    "output.unit": "%",
    "reported": 42.17
  },
  {
    "compound": "CC(C)CN1C(=O)C2(CCN(CC3CCOCC3)C2)c2ccccc21.O=C(O)C(F)(F)F (stereo not given)",
    "target.or.system": "Leishmania donovani",
    "output.unit": "%",
    "reported": 64.12
  },
  {
    "compound": "COCCN(C)C[C@@H]1CN(C(=O)c2ccc(C)cc2)C[C@@H]1CO",
    "target.or.system": "Leishmania donovani",
    "output.unit": "%",
    "reported": 11.58
  },
  {
    "compound": "COc1cccc(CN2CCCC3(CCN(C(=O)N4CCCC4)C3)C2)c1.O=C(O)C(F)(F)F (stereo not given)",
    "target.or.system": "Leishmania donovani",
    "output.unit": "%",
    "reported": 1.476
  },
  {
    "compound": "CC(C)CN1C(=O)C2(CCN(Cc3cccs3)C2)c2ccccc21.O=C(O)C(F)(F)F (stereo not given)",
    "target.or.system": "Leishmania donovani",
    "output.unit": "%",
    "reported": 1.991
  },
  {
    "compound": "COc1c(CNCc2ccccc2-n2ccnc2)c(C)nn1C",
    "target.or.system": "Leishmania donovani",
    "output.unit": "%",
    "reported": -14
  },
  {
    "compound": "Cc1cc(C(=O)Nc2ccc3c(ccn3CCN3CCOCC3)c2)on1",
    "target.or.system": "Leishmania donovani",
    "output.unit": "%",
    "reported": -2.631
  }
]

Next, consider the following compound.
Which value of Percent Effect has been reported for O=C(O)C(F)(F)F.O=C1CC2(CCN(CC3CCOC3)CC2)c2ccccc2N1CC1CC1 (stereo not given) in the records?
8.748

The reported measurements were obtained from ChEMBL document CHEMBL3988442.
